Measurement Description: Stability in PBS, HEPES buffer and Mueller Hinton broth
Format: physicochemical
Condition Set: buffer; PBS, pH 7.4; read-out: t1/2 PBS
Readout Type: half-life

In [3]: df
Out[3]:
                                smiles_text  readout_type  result
0  CSCC[C@H](NC=O)C(=O)N[C@@H](CC(C)C)C(=O)Oc1ccc(COC(=O)N(CCCl)CCCl)cc1     half-life  > 12 h

* * *

Measurement Description: Stability in PBS, HEPES buffer and Mueller Hinton broth
Assay type: physicochemical
Condition Set: Mueller Hinton broth; read-out: t1/2 Broth
Protocol: Stability of PDF ECTA compounds was determined in different media: PBS, pH 7.4 (Gibco Life Technologies), 50 mM HEPES buffer (Sigma), pH 7.5, Mueller Hinton broth (Becton Dickinson), mouse and human plasma (Sigma). Dependence of a compound concentration on time was fit to an exponential equation c=co×exp(−k×t)} where c is the running concentration of the compound, co is its initial concentration and t is time. The compound half-life was determined as t1/2=0.693/k.
Some compounds, each annotated with its measured half-life.
Readout Type: half-life

>>> print(df.to_string())
                                smiles_text  result
0  CSCC[C@H](NC=O)C(=O)N[C@@H](CC(C)C)C(=O)Oc1ccc(CSc2cccc[n+]2[O-])cc1  > 12 h
1  CCn1cc(C(=O)O)c(=O)c2cc(F)c(N3CCN(C(=O)OCc4ccc(OC(=O)[C@H](CC(C)C)NC(=O)[C@H](CCSC)NC=O)cc4)CC3)cc21  > 12 h

All values here come from patent US7163923B2.
